Overview of recorded % Inhibition, Trypanosoma cruzi for various compounds
system: T. cruzi (MHOM/BR/00/Y); experiment: Trypanosoma cruzi in mouse peritoneal macrophages; assay type: cell-based; details: 10 μM
All answers are understood in %, so give the number only.

compound	readout.unit	% Inhibition, Trypanosoma cruzi
Cc1cc[n+]([Pt-2]23[n+]4ccccc4-c4cc(Cl)cc([n+]42)-c2cccc[n+]23)cc1.F[B-](F)(F)F.F[B-](F)(F)F [I]	%	97.0
F[B-](F)(F)F.F[B-](F)(F)F.[NH3+][Pt-2]12[n+]3ccccc3-c3cccc([n+]31)-c1cccc[n+]12 [Compound A12]	%	100
F[B-](F)(F)F.F[B-](F)(F)F.Fc1ccc[n+]([Pt-2]23[n+]4ccccc4-c4cccc([n+]42)-c2cccc[n+]23)c1 [Compound A5]	%	43.8
CN(NC(=O)CCCCC(=O)NN(C)c1cc(-c2ccccn2)nc(-c2ccccn2)c1)c1cc(-c2ccccn2)nc(-c2ccccn2)c1.Cc1ccncc1.Cc1ccncc1.F[B-](F)(F)F.F[B-](F)(F)F.F[B-](F)(F)F.F[B-](F)(F)F.[Pt+2].[Pt+2] [W]	%	0
Cc1ccncc1.Cc1ccncc1.F[B-](F)(F)F.F[B-](F)(F)F.F[B-](F)(F)F.F[B-](F)(F)F.O=C(CCCCC(=O)NNc1cc(-c2ccccn2)nc(-c2ccccn2)c1)NNc1cc(-c2ccccn2)nc(-c2ccccn2)c1.[Pt+2].[Pt+2] [V]	%	0

Now, please, on to the next compound.
Q: What measured % Inhibition, Trypanosoma cruzi goes with F[B-](F)(F)F.F[B-](F)(F)F.Fc1cccc[n+]1[Pt-2]12[n+]3ccccc3-c3cccc([n+]31)-c1cccc[n+]12 [Compound A4] ?
A: 93

---

system: CH1 human ovarian carcinoma cell line; assay: 96 h growth inhibition, sulforhodamine B assay, CH1; assay type: cell-based; details: 96 h exposure, v = variable (mean)
measured.parameter: IC50 (µM)
Report only the number, with the unit µM understood.

Some compounds with known IC50 results, for comparison:
compound	target.desc	IC50 [µM]
F[B-](F)(F)F.F[B-](F)(F)F.Fc1cccc[n+]1[Pt-2]12[n+]3ccccc3-c3cccc([n+]31)-c1cccc[n+]12 [Compound A4]	CH1 human ovarian carcinoma cell line	15.5
CN(NC(=O)CCCCC(=O)NN(C)c1cc(-c2ccccn2)nc(-c2ccccn2)c1)c1cc(-c2ccccn2)nc(-c2ccccn2)c1.Cc1ccncc1.Cc1ccncc1.F[B-](F)(F)F.F[B-](F)(F)F.F[B-](F)(F)F.F[B-](F)(F)F.[Pt+2].[Pt+2] [W]	CH1 human ovarian carcinoma cell line	48
CN(N)c1cc(-c2ccccn2)nc(-c2ccccn2)c1.Cc1ccncc1.F[B-](F)(F)F.F[B-](F)(F)F.[Pt+2] [S]	CH1 human ovarian carcinoma cell line	65
Cc1cc[n+]([Pt-2]23[n+]4ccccc4-c4cc(Cl)cc([n+]42)-c2cccc[n+]23)cc1.F[B-](F)(F)F.F[B-](F)(F)F [I]	CH1 human ovarian carcinoma cell line	6.35
CC(=O)c1cc[n+]([Pt-2]23[n+]4ccccc4-c4cccc([n+]42)-c2cccc[n+]23)cc1.F[B-](F)(F)F.F[B-](F)(F)F [Compound A2]	CH1 human ovarian carcinoma cell line	2.2

Now, please, on to the next compound.
Q: Request - read-out IC50 | tested on CH1 human ovarian carcinoma cell line | compound F[B-](F)(F)F.F[B-](F)(F)F.c1cc[n+]2c(c1)-c1cccc3[n+]1[Pt-2]2([n+]1ccsc1)[n+]1ccccc1-3 [Compound A6]
A: 17
